Task for the reader: assign each of the following compounds its reported viability, T/C.
- Tested on: 565232-114-T-J1-PDC complex spheroid viability;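 note: spheroids exposed to compounds for 7 days before readout; 100% = DMSO vehicle wells with luminescence normalized to vehicle control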
- assay method text: Anticancer human tumor 565232-114-T-J1-PDC patient-derived bladder carcinoma cell line growth inhibition [CLK]
- test context: second compound 0.1 µM; first compound 3.16 µM; active compounds read low
Please respond with the number in % and leave the unit unwritten.

Task: Notebook: pull reported viability, T/C for 565232-114-T-J1-PDC complex spheroid viability, entry COc1ccc([C@@H](O)c2cc(-c3ncnc4cc(N5CCOCC5)ccc34)c(F)cc2Cl)nn1 + CN1CCN(c2cc(C(=O)Nc3cc4cc(-c5cnn(C)c5)ccc4cn3)ccn2)CC1
Result: 105

Task: Notebook: pull reported viability, T/C for 565232-114-T-J1-PDC complex spheroid viability, entry CC(=O)O[C@H]1C(=O)[C@@]2(C)[C@H]([C@H](OC(=O)c3ccccc3)[C@]3(O)C[C@H](OC(=O)[C@H](O)[C@@H](NC(=O)c4ccccc4)c4ccccc4)C(C)=C1C3(C)C)[C@]1(OC(C)=O)CO[C@@H]1C[C@@H]2O + CN1CCN(c2cc(C(=O)Nc3cc4cc(-c5cnn(C)c5)ccc4cn3)ccn2)CC1
Result: 17

Task: Notebook: pull reported viability, T/C for 565232-114-T-J1-PDC complex spheroid viability, entry O=C(c1cc(Cc2n[nH]c(=O)c3ccccc23)ccc1F)N1CCN(C(=O)C2CC2)CC1 + CN1CCN(c2cc(C(=O)Nc3cc4cc(-c5cnn(C)c5)ccc4cn3)ccn2)CC1
Result: 148

Task: Notebook: pull reported viability, T/C for 565232-114-T-J1-PDC complex spheroid viability, entry CC(=O)O[C@H]1C(=O)[C@@]2(C)[C@H]([C@H](OC(=O)c3ccccc3)[C@]3(O)C[C@H](OC(=O)[C@H](O)[C@@H](NC(=O)c4ccccc4)c4ccccc4)C(C)=C1C3(C)C)[C@]1(OC(C)=O)CO[C@@H]1C[C@@H]2O + CNC(=O)c1ccc(Nc2nc(OC3CCCC3)c3c(-c4ccc5nc(C)oc5c4)c[nH]c3n2)c(OC)c1
Result: 43.8

Numbers sourced from PubChem BioAssay AID2060612.
